Biological target: PTPN3, P26045
Sequence (P26045 505-587): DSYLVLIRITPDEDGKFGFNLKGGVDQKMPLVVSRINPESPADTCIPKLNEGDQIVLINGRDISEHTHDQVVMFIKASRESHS
Assay: holdup assay
Set-up: key: below the threshold = too weak to quantify, mostly under pKd 3.1 to 4
Conditions: plain residues with an end cap or a label only (N-terminal biotin on a linker: ttds)
reported.property: pKd

# example entries with known answers
PFRSRSPSEV [GPR6, P46095] :: 3.95
GARVSKETPL [MAPK12, P53778] :: 4.93
DLDEEEDTHL [PODXL, O00592] :: 3.85
PSRDRKETSI [RALBP1, Q15311] :: 4.75
SSIDLWETAL [SLC15A5, A6NIM6] :: 5.4
PPRQRSETQV [HPV82-E6, Q9IR59] :: 4.31
KLVIKTETTV [RASSF6, Q6ZTQ3] :: 4.44

Read the next record carefully.
What value of pKd has been recorded for this entry: SGGKRKETLV [NET1, Q7Z628]
4.66
